Cited source for all entries: ChEMBL document CHEMBL3259802

# Tested on: Rattus norvegicus
# experiment.description: Increase in GABA level in Wistar rat whole brain at 30 mg/kg, po for 7 days measured at 4 hrs after last drug dose per 100 mg of tissue (reference value: 49.2 +/- 3.01 ug)
# Format: functional
assay.metric: Activity (µg)
Please reply with the bare figure in µg and do not write the unit itself.

Identify the reported Activity for the following entry. CN1C(=O)CC(=O)N(c2ccccc2)c2cc(Cl)ccc21
110

Identify the reported Activity for the following entry. CC(=O)c1c(-c2ccccc2)n(C2=NNC(=S)NC2N)c2ccc(F)cc12 (centres undefined)
110

Identify the reported Activity for the following entry. NC(=O)c1c(-c2ccccc2)n(C2=NNC(=S)NC2N)c2ccc([N+](=O)[O-])cc12 (centres undefined)
88.4

Identify the reported Activity for the following entry. CC(=O)c1c(-c2ccccc2)n(C2=NNC(=S)NC2N)c2ccc(C(F)(F)F)cc12 (centres undefined)
79.1
